Ref: ChEMBL document CHEMBL1139294

# System: HT-29
# assay-notes: Antiproliferative activity against human HT-29 cells by SRB assay
# Type: functional, cell-based
# test-conditions: Homo sapiens, HT-29
pIC50: −log10 of the molar value.
measure-name: pIC50

Completed entries (count: 8):
{"compound": "CN(C)c1ccc(C(=O)N2Cc3ccccc3C(c3ccccc3)c3ccccc32)cc1 (configuration not stated)", "pIC50": 6.00}
{"compound": "O=C(Oc1ccccc1)N1Cc2ccccc2C(c2ccccc2Cl)c2ccccc21 (configuration not stated)", "pIC50": 5.30}
{"compound": "Clc1ccccc1C1c2ccccc2CNc2ccccc21 (configuration not stated)", "pIC50": 5.92}
{"compound": "C[N+](C)(C)c1ccc(C(=O)N2Cc3ccccc3C(c3ccccc3)c3ccccc32)cc1 (configuration not stated)", "pIC50": 5.96}
{"compound": "Nc1ccc(C(=O)N2Cc3ccccc3C(c3ccccc3Cl)c3ccccc32)cc1 (configuration not stated)", "pIC50": 5.77}
{"compound": "COc1ccc(C(=O)N2Cc3ccccc3C(c3ccccc3Cl)c3ccccc32)cc1 (configuration not stated)", "pIC50": 6.40}
{"compound": "CN1Cc2ccccc2C(c2ccccc2Cl)c2ccccc21 (configuration not stated)", "pIC50": 5.01}
{"compound": "CC(C)(C)Oc1cccc(C(=O)N2Cc3ccccc3C(c3ccccc3Cl)c3ccccc32)c1 (configuration not stated)", "pIC50": 5.77}

P = COc1ccc2c(c1)CN(C(=O)c1ccc([N+](=O)[O-])cc1)c1ccc(Cl)cc1C2c1ccccc1Cl (configuration not stated)
Q = CC(C)(C)Oc1cccc(C(=O)N2Cc3ccccc3C(c3ccccc3)c3ccccc32)c1 (configuration not stated)
QUERY: Which of the two gives a bigger number for pIC50: P or Q ? Provide the label of your selected option as the answer.
RESULT: P

P = O=C(c1ccccc1)N1Cc2ccccc2C(c2ccccc2Cl)c2ccccc21 (configuration not stated)
Q = O=C(c1ccc([N+](=O)[O-])cc1)N1Cc2ccccc2C(c2ccccc2Cl)c2ccccc21 (stereo in doubt; 9)
QUERY: Which of the two gives a bigger number for pIC50: P or Q ? Provide the label of your selected option as the answer.
RESULT: Q

a = O=C(c1ccc([N+](=O)[O-])cc1)N1Cc2ccccc2C(c2ccccc2)c2ccccc21 (configuration not stated)
b = COc1ccc2c(c1)C(c1ccccc1Cl)c1cc(Cl)ccc1N(C(=O)c1ccc([N+](=O)[O-])cc1)C2 (configuration not stated)
c = O=C(Nc1ccc([N+](=O)[O-])cc1)N1Cc2ccccc2C(c2ccccc2Cl)c2ccccc21 (configuration not stated)
QUERY: Ascending sort, pIC50. Output spec: labels arranged per the requested ranking.
RESULT: c, a, b
(c: 5.32, a: 6.15, b: 6.70)
